Assay read-out IC50 on PIP4K2B (Homo sapiens, UniProt P78356); records merged from the literature.
Sequence (P78356 whole entry, species assumed): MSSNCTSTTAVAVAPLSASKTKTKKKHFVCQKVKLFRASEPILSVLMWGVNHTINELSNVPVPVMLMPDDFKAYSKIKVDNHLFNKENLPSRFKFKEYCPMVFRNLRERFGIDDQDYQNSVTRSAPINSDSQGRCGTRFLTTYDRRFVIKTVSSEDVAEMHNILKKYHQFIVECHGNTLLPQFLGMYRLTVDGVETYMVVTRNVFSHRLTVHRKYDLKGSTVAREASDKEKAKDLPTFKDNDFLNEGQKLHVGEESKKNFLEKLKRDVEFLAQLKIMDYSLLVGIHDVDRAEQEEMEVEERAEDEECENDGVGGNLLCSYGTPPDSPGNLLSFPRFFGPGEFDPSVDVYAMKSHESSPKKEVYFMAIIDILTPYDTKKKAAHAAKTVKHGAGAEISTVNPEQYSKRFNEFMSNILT

>  <Query Smiles>
O=C(Nc1ccccc1)c1cc2c(-c3cncc(-c4ccc(N5CCCC5=O)cc4)c3)ccnc2[nH]1

>  <IC50>
10 to 100 nM

$$$$
>  <Query Smiles>
CN(c1nc(Nc2cnc3c(c2)N2C(=O)CC[C@H]2CO3)ncc1-c1ccc(N2CCCC2=O)cc1)[C@H]1C[C@H](O)C1

>  <IC50>
1 to 10 nM

$$$$
>  <Query Smiles>
O=C1C[C@H](O)CN1c1ccc(-c2ccc(Nc3cnc4c(c3)N3C(=O)CC[C@H]3CO4)nc2)cc1

>  <IC50>
> 1000 nM

$$$$
>  <Query Smiles>
CCn1cnnc1-c1ccc(-c2cncc(-c3ccnc4c3cc3n4CCN(C)C3=O)c2)cc1

>  <IC50>
1 to 10 nM

$$$$

* * *

pIC50: −log10 of the molar value.
Assay read-out pIC50 on PIP4K2B (Homo sapiens, UniProt P78356); records merged from the literature.

>  <Molecule>
COc1ccc(C(=O)Nc2cncc(Nc3cc4c(cn3)-c3ccc(N5CCCC5=O)cc3OC4C)c2)cc1 (stereo not drawn)

>  <pIC50>
7.00 to 8.00

$$$$
>  <Molecule>
CC1Oc2cc(N3CCCC3=O)c(F)cc2-c2cnc(Nc3cnc4c(c3)N3C(=O)CC[C@@H]3CO4)cc21 (stereo partly drawn)

>  <pIC50>
8.00 to 9.00

$$$$
>  <Molecule>
CN(C)C(=O)c1ccc(-c2ccc(Nc3cncc(NC(=O)CCc4cccc(NC(=O)CCCCCN)c4)c3)nc2)cc1

>  <pIC50>
7.00 to 8.00

$$$$
>  <Molecule>
CN(C)C(=O)c1ccc(-c2ccc(Nc3cncc(NC(=O)c4cccc5[nH]cnc45)c3)nc2)cc1

>  <pIC50>
7.00 to 8.00

$$$$
>  <Molecule>
CN1CCn2c(cc3c(-c4cncc(-c5ccc(C(=O)N6CCC7(CC7)C6)cc5)c4)ccnc32)C1=O

>  <pIC50>
6.00 to 7.00

$$$$
>  <Molecule>
C[C@@H]1C[C@@H](C(C)(C)O)N(C(=O)c2cc3c(-c4cncc(-c5ccc(N6CCCC6=O)cc5)c4)ccnc3[nH]2)C1

>  <pIC50>
6.00 to 7.00

$$$$
>  <Molecule>
O=C1CCCN1c1ccc2c(c1)OC1(CCC1)c1cc(Nc3cnc4c(c3)N3C(=O)CC[C@H]3CO4)ncc1-2

>  <pIC50>
8.00 to 9.00

$$$$
>  <Molecule>
O=C1CCCN1c1ccc(-c2cnc(Nc3cnc4c(c3)N3C(=O)C5(CC5)C[C@H]3CO4)cc2C2CC2)cc1

>  <pIC50>
8.00 to 9.00

$$$$
>  <Molecule>
Cc1noc2nccc(-c3cncc(-c4ccc(N5CCCC5=O)cc4)c3)c12

>  <pIC50>
6.00 to 7.00

$$$$
>  <Molecule>
CC1Oc2cc(N3CCCC3=O)ccc2-c2cnc(Nc3cncc(NC(=O)c4cncc(N)n4)c3)cc21 (stereo not drawn)

>  <pIC50>
7.00 to 8.00

$$$$
>  <Molecule>
CN(C)C/C=C/C(=O)NCC(=O)Nc1ccc(CN2CCN(c3cncc(Nc4ccc(-c5ccc(C(=O)N(C)C)cc5)cn4)c3)C2=O)cc1

>  <pIC50>
< 6.00

$$$$
>  <Molecule>
COc1nc(Nc2cnc3c(c2)N(C(=O)OCCN(C)C)CCO3)ncc1-c1ccc(C(=O)N(C)C)cc1

>  <pIC50>
8.00 to 9.00

$$$$
>  <Molecule>
CC1Oc2cc(N3CCCC3=O)ccc2-c2cnc(Nc3cncc(NC(=O)CCc4cccc(NC(=O)CCCN(C)C)c4)c3)cc21 (stereo not drawn)

>  <pIC50>
8.00 to 9.00

$$$$
>  <Molecule>
CC1Oc2cc(N3CCCC3=O)ccc2-c2cnc(Nc3cncc(N4CCCC4=O)c3)cc21 (stereo not drawn)

>  <pIC50>
7.00 to 8.00

$$$$
>  <Molecule>
CC(C)Cn1cnnc1-c1ccc(-c2cncc(-c3ccnc4[nH]c(C(=O)NCc5ccccc5)cc34)c2)cc1

>  <pIC50>
7.00 to 8.00

$$$$
>  <Molecule>
CN1CCn2c(cc3c(-c4cncc(-c5ccc(-c6nncn6C(C)(C)C)cc5)c4)ccnc32)C1=O

>  <pIC50>
8.00 to 9.00

$$$$
>  <Molecule>
COc1ncc(Nc2cc3c(cn2)-c2ccc(N4CCCC4=O)cc2OC3C)cc1N(C)S(C)(=O)=O (stereo not drawn)

>  <pIC50>
6.00 to 7.00

$$$$
>  <Molecule>
COCCNC(=O)c1cc2c(-c3cnc(N)c(-c4ccc(C(=O)N(C)C)cn4)c3)ccnc2[nH]1

>  <pIC50>
7.00 to 8.00

$$$$

* * *

Assay read-out IC50 on PIP4K2B (Homo sapiens); records merged from the literature.

>  <Compound>
CN1CCN(CC(=O)N(C)c2cncc(Nc3ncc4c(n3)C(C)(C)Oc3cc(N5CCCC5=O)ccc3-4)c2)CC1

>  <IC50>
> 1000 nM

$$$$
>  <Compound>
O=C1CCCN1c1ccc(-c2cncc(-c3c[nH]c4ncncc34)c2)cc1

>  <IC50>
100 to 1000 nM

$$$$
>  <Compound>
C[C@H](c1ccccc1)N1CCN(c2cncc(Nc3ccc(-c4ccc(C(=O)N(C)C)cc4)cn3)c2)C1=O

>  <IC50>
10 to 100 nM

$$$$
>  <Compound>
CN(C)C(=O)c1ccc(-c2cc(-c3ccnc(CNC(=O)c4ccc(N)cc4)c3)cnc2N)nc1

>  <IC50>
1000 to 2500 nM

$$$$
>  <Compound>
O=C(NCc1cccnc1)c1cc2c(-c3cncc(-c4ccc(N5CCCC5=O)cc4)c3)ccnc2[nH]1

>  <IC50>
10 to 100 nM

$$$$
>  <Compound>
O=C1NCc2c(-c3cncc(-c4ccc(N5CCCC5=O)cc4)c3)ccnc21

>  <IC50>
100 to 1000 nM

$$$$
>  <Compound>
COc1cc(Nc2cnc3c(c2)N2C(=O)CC[C@H]2CO3)ncc1-c1ccc(N2CCCC2=O)c(F)c1

>  <IC50>
10 to 100 nM

$$$$
>  <Compound>
CN(C)C(=O)c1ccc(-c2ccc(Nc3cncc(NS(C)(=O)=O)c3)nc2)cc1

>  <IC50>
10 to 100 nM

$$$$
>  <Compound>
CC1Oc2cc(N3CCCC3=O)ccc2-c2cnc(Nc3cncc(NC(=O)c4cccc5c4OCO5)c3)cc21 (stereo not drawn)

>  <IC50>
10 to 100 nM

$$$$
>  <Compound>
CN(C)C(=O)c1ccc(-c2cncc(-c3c[nH]c4ncccc34)c2)cc1

>  <IC50>
100 to 1000 nM

$$$$
>  <Compound>
Cc1conc1-c1ccc2c(c1)OC(C)(C)c1cc(Nc3cnc4c(c3)N3C(=O)CC[C@H]3CO4)ncc1-2

>  <IC50>
1 to 10 nM

$$$$
>  <Compound>
CNC(=O)c1cnc2c(c1)c(-c1cncc(-c3ccc(N4CCCC4=O)cc3)c1)cn2C

>  <IC50>
100 to 1000 nM

$$$$
>  <Compound>
COCc1cc(-c2cncc(-c3ccc(N4CCCC4=O)cc3)c2)n2nc(C)cc2n1

>  <IC50>
2500 to 5000 nM

$$$$
>  <Compound>
CNC(=O)c1cc2c(-c3cncc(-c4ccc(N5CCCC5=O)cc4)c3)ccnc2o1

>  <IC50>
10 to 100 nM

$$$$
>  <Compound>
CN(C)C(=O)c1ccc(-c2cc(-c3ccnc4[nH]c(C(=O)N5CCCC5)cc34)cnc2N)nc1

>  <IC50>
10 to 100 nM

$$$$

* * *

Assay read-out pIC50 on PIP4K2B (Homo sapiens, UniProt P78356); records merged from the literature.
pIC50: −log10 of the molar value.

>  <Molecule>
CN(Cc1cncs1)C(=O)c1ccc(-c2ccc(Nc3cccnc3)nc2)cc1

>  <System>
PIP4K2B (Homo sapiens, UniProt P78356)

>  <pIC50>
< 6.00

$$$$
>  <Molecule>
CN(C)C(=O)c1ccc(-c2ccc(Nc3cnc4c(c3)N(C(=O)c3ccccc3)CCO4)nc2)cc1

>  <System>
PIP4K2B (Homo sapiens, UniProt P78356)

>  <pIC50>
7.00 to 8.00

$$$$
>  <Molecule>
CC(C)S(=O)(=O)N1CCOc2ncc(Nc3cc4c(cn3)-c3ccc(N5CCCC5=O)cc3OC4)cc21

>  <System>
PIP4K2B (Homo sapiens, UniProt P78356)

>  <pIC50>
7.00 to 8.00

$$$$
>  <Molecule>
CNC(=O)N1CCOc2ncc(Nc3ncc4c(n3)C(C)(C)Oc3cc(-n5nncc5C)ccc3-4)cc21

>  <System>
PIP4K2B (Homo sapiens, UniProt P78356)

>  <pIC50>
8.00 to 9.00

$$$$
>  <Molecule>
CC1Oc2cc(N3CCCC3=O)ccc2-c2cnc(Nc3cncc(NC(=O)c4cccc(N)c4)c3)cc21 (stereo not shown)

>  <System>
PIP4K2B (Homo sapiens, UniProt P78356)

>  <pIC50>
7.00 to 8.00

$$$$
>  <Molecule>
COCCNC(=O)c1cc2c(-c3cncc(-c4ccc(N5CCCC5=O)cc4)c3)ccnc2o1

>  <System>
PIP4K2B (Homo sapiens, UniProt P78356)

>  <pIC50>
7.00 to 8.00

$$$$
>  <Molecule>
O=C1CCCN1c1ccc(-c2cncc(-c3ccc(=O)[nH]c3)c2)cc1

>  <System>
PIP4K2B (Homo sapiens, UniProt P78356)

>  <pIC50>
5.30 to 5.60

$$$$
>  <Molecule>
CN1CCn2c(cc3c(-c4cncc(-c5ccc(-c6nncn6C6CCC6)cc5)c4)ccnc32)C1=O

>  <System>
PIP4K2B (Homo sapiens, UniProt P78356)

>  <pIC50>
7.00 to 8.00

$$$$
>  <Molecule>
CN(C)C(=O)c1ccc(-c2cc(-c3ccnc4[nH]c(C(=O)NC5CCOCC5)cc34)cnc2N)nc1

>  <System>
PIP4K2B (Homo sapiens, UniProt P78356)

>  <pIC50>
7.00 to 8.00

$$$$
>  <Molecule>
CC1Oc2cc(N3CCCC3=O)ccc2-c2cnc(Nc3cncc(NC(=O)C4Cc5ccccc5O4)c3)cc21 (stereo not shown)

>  <System>
PIP4K2B (Homo sapiens, UniProt P78356)

>  <pIC50>
6.00 to 7.00

$$$$
